test system: Ly-BP RUNX1 p.R204Q; assay: drug sensitivity score (DSS) (DSS score); higher = more sensitive (stronger growth inhibition); extreme values may be limits of the assay
metric: drug sensitivity score
Please give the numeric answer without any surrounding text.

Recorded drug sensitivity score for O=P1(N(CCCl)CCCl)NCCCO1 (configuration not stated) [Cyclophosphamide] on Ly-BP RUNX1 p.R204Q was 0

Considering OC[C@H]1O[C@@H](n2cnc3c2N=CNC[C@H]3O)C[C@@H]1O , its drug sensitivity score with Ly-BP RUNX1 p.R204Q was recorded as 6.24

// assay Ly-BP RUNX1 p.R204Q, entry CC(=O)Nc1ccc(C(=O)Nc2ccccc2N)cc1 , drug sensitivity score value = 0

With Ly-BP RUNX1 p.R204Q as the test system, CC(=O)O[C@H]1C(=O)[C@@]2(C)[C@H]([C@H](OC(=O)c3ccccc3)[C@]3(O)C[C@H](OC(=O)[C@H](O)[C@@H](NC(=O)c4ccccc4)c4ccccc4)C(C)=C1C3(C)C)[C@]1(OC(C)=O)CO[C@@H]1C[C@@H]2O showed drug sensitivity score of 1.68

Query C[C@]12O[C@H](C[C@]1(O)CO)n1c3ccccc3c3c4c(c5c6ccccc6n2c5c31)CNC4=O on Ly-BP RUNX1 p.R204Q; drug sensitivity score returned: 0

For the compound Nc1ccn([C@@H]2O[C@H](CO)[C@@H](O)C2(F)F)c(=O)n1 , the measured drug sensitivity score on Ly-BP RUNX1 p.R204Q was 0

Entry Cc1ccc(-c2cc(C(F)(F)F)nn2-c2ccc(S(N)(=O)=O)cc2)cc1 , Ly-BP RUNX1 p.R204Q data, drug sensitivity score value: 0

Entry CC[C@@H]1C(=O)OC[C@@H]1Cc1cncn1C under Ly-BP RUNX1 p.R204Q had drug sensitivity score of 0

The measured drug sensitivity score that CN(C)/N=N/c1[nH]cnc1C(N)=O showed for Ly-BP RUNX1 p.R204Q is 0

Record for CC(C)Cn1cnc2c(N)nc3ccccc3c21 under target or system Ly-BP RUNX1 p.R204Q: drug sensitivity score reported as 0

The recorded drug sensitivity score with Ly-BP RUNX1 p.R204Q for CS(=O)(=O)N1CCN(Cc2cc3nc(-c4cccc5[nH]ncc45)nc(N4CCOCC4)c3s2)CC1 was 13.5

Observed drug sensitivity score on Ly-BP RUNX1 p.R204Q, entry CCC1(c2ccc(N)cc2)CCC(=O)NC1=O (configuration not stated) [Aminoglutethimide] , equals 0

The reported Ly-BP RUNX1 p.R204Q drug sensitivity score of C#Cc1cccc(Nc2ncnc3cc(OC)c(OCCCCCCC(=O)NO)cc23)c1 is 22.2

drug sensitivity score on Ly-BP RUNX1 p.R204Q for CC(=O)Nc1cccc(-n2c(=O)n(C3CC3)c(=O)c3c(Nc4ccc(I)cc4F)n(C)c(=O)c(C)c32)c1 is 14.3

Record O=C(/C=C/c1cccc(S(=O)(=O)Nc2ccccc2)c1)NO has Ly-BP RUNX1 p.R204Q drug sensitivity score equal to 25.9

Tested system Ly-BP RUNX1 p.R204Q; drug sensitivity score recorded for CCCCCOC(=O)Nc1nc(=O)n([C@@H]2O[C@H](C)[C@@H](O)[C@H]2O)cc1F was 0

drug sensitivity score value, target or system Ly-BP RUNX1 p.R204Q, for O=C1CN2Cc3c(ccc(Cl)c3Cl)N=C2N1 [Anagrelide] : 0

Reference for the values: the supplement of paper PMC8024199
